Each entry below carries its recorded IC50.
Target: BCDIN3D (Homo sapiens)
Test: BCDIN3D IC50 RFMS (RapidFire) assay with mini-helix
Format: biochemical
Conditions: mini-helix substrate 0.2 μM, SAM 6 μM, 25 nM enzyme
Description: The following General Methods details the assay conditions for the Biological assays. BCDIN3D IC50 RFMS Assay with Mini-Helix The enzymatic assay was performed in a 384-well polypropylene plate in assay buffer with 25 mM Tris pH 8.0, 10 mM DTT, 1 mM EDTA, 0.03% BSA in a final assay volume of 20 μL. The enzyme with a final concentration of 25 nM was pre-incubated with the respective compound at 1% DMSO final assay concentration over 10 min at room temperature. […]
Quantity: IC50

| Compound | System Under Test | Reported Result |
| --- | --- | --- |
| Cn1ncc2c(Nc3ccc(C#N)cc3)nc(NCC3(N)CCCC3)nc21 | BCDIN3D (Homo sapiens) | 1800 nM |
| Cn1ncc2c(NC(C)(C)C)nc(NCC(N)c3cccnc3)nc21 (stereo not drawn) | BCDIN3D (Homo sapiens) | 615 nM |
| Cn1ncc2c(NC(C)(C)C)nc(NCC(N)c3ccccc3F)nc21 (stereo not drawn) | BCDIN3D (Homo sapiens) | 383 nM |
| Cn1ncc2c(NC(C)(C)C)nc(NCC(N)c3ccc(F)c(F)c3)nc21 (stereo not drawn) | BCDIN3D (Homo sapiens) | 350 nM |
| Cn1ncc2c(NC(C)(C)C(F)(F)F)nc(NC[C@H](N)c3cccc(C#N)c3)nc21 | BCDIN3D (Homo sapiens) | 61.7 nM |
| CC(C)Nc1nc(NC[C@H](N)c2ccccc2)nc2c1cnn2C | BCDIN3D (Homo sapiens) | 253 nM |
| [2H]C([2H])([2H])n1ncc2c(NC(C)(C)C)nc(NCC(N)c3ccccc3)nc21 (stereo not drawn) | BCDIN3D (Homo sapiens) | 169 nM |
| CC1CC1CNc1nc(NC[C@H](N)c2ccccc2)nc2c1cnn2C (stereo partly drawn) | BCDIN3D (Homo sapiens) | 70.4 nM |
| Cn1ncc2c(NC3CC3)nc(NCC(N)c3ccccc3)nc21 (stereo not drawn) | BCDIN3D (Homo sapiens) | 2560 nM |

====

Each entry below carries its recorded pIC50.
target: BCDIN3D (Homo sapiens, UniProt Q7Z5W3); test: BCDIN3D IC50 RFMS (RapidFire) assay with mini-helix; format: biochemical; conditions: mini-helix substrate 0.2 μM, SAM 6 μM, 25 nM enzyme
Sequence (Q7Z5W3 whole entry): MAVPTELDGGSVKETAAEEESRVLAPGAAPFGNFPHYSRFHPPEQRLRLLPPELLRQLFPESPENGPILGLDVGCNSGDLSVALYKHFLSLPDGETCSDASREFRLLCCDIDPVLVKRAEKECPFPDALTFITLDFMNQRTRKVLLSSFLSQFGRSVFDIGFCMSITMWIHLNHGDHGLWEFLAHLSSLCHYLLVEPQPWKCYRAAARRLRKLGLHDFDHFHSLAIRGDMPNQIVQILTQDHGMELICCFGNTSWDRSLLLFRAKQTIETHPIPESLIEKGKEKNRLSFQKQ
pIC50: −log10 of the molar value.

| Compound | pIC50 |
| --- | --- |
| CCn1ncc2c(Nc3ccc(C(F)(F)F)cc3)nc(NCC3(N)CC3)nc21 | 5.97 |
| Cn1ncc2c(NC(C)(C)C)nc(NC[C@H](N)c3ccccc3)nc21 | 6.93 |
| Cn1ncc2c(NCCC(F)(F)F)nc(NC[C@H](N)c3ccccc3)nc21 | 6.27 |
| Cc1nn(C)c2nc(NC[C@H](N)c3ccccc3)nc(NC(C)(C)C)c12 | 6.00 |
| COc1ccc(Nc2nc(NCC3(N)CC3)nc3c2cnn3C)cc1Cl | 7.22 |
| Cn1ncc2c(Nc3ccc(OC(F)(F)F)cc3)nc(NCC3(N)CCCC3)nc21 | 6.94 |
| Cn1ncc2c(NC(C)(C)C)nc(NCC(N)c3ccccc3Br)nc21 (stereo not drawn) | 6.22 |
| Cn1ncc2c(Nc3ccc(C(F)(F)F)cc3)nc(NC[C@@H](N)c3ccccc3)nc21 | 5.82 |
| Cn1ncc2c(NCC3CC(F)C3)nc(NC[C@H](N)c3ccccc3)nc21 (stereo partly drawn) | 6.54 |
| Cn1ncc2c(NC3CC(C#N)C3)nc(NC[C@H](N)c3ccccc3)nc21 (stereo partly drawn) | 6.89 |
| Cn1ncc2c(Nc3ccc(Cl)c(Cl)c3)nc(NCC3(N)CC3)nc21 | 7.48 |
| CCNc1nc(NCC(N)c2ccccc2)nc2c1cnn2C (stereo not drawn) | 6.02 |
| CC[C@H](N)CNc1nc(NCc2ccc(C)c(Cl)c2)c2cnn(C)c2n1 | 5.47 |
| Cn1ncc2c(Nc3ccc(C(F)(F)F)cc3)nc(NCC(N)C3CCCCC3)nc21 (stereo not drawn) | 7.00 |
| Cn1ncc2c(N[C@H]3C[C@H](F)C3)nc(NC[C@H](N)c3ccccc3)nc21 | 6.96 |
| Cn1ncc2c(Nc3ccc(F)c(F)c3)nc(NCC3(N)CC3)nc21 | 6.46 |
| Cn1ncc2c(NC3(C)CCCC3)nc(NC[C@H](N)c3ccccc3)nc21 | 6.82 |
| Cn1ncc2c(NC(C)(C)C)nc(NCC(N)C3CCCCC3)nc21 (stereo not drawn) | 6.64 |
